Target: T1, 4H932-bH
T1 chain: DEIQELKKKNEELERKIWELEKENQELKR
Test: two-hybrid library CCNG1;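 note: natural log of median RNA to DNA barcode read ratio; higher means stronger binding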
Examples of binders with documented interaction score follow.
Number, no unit, nothing else.

Solved entries:
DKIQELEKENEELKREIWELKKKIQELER [4H2253-bH] :: -0.937
DKIQELKKKNEELKRKIWELEKEIQELER [4H3041-bH] :: -0.092
DKNQELKKKNEELERKIWELEKEIQELER [4H4001-bH] :: 0.0317
DKNQELEKENEELKRKIWELEKEIQELER [4H3297-bH] :: -0.844
DKIQELKKEIEELERENWELKKEIQELER [4H2585-bH] :: -1.27

Reported interaction score for DEIQELEKENEELKRKIWELKKENQELER [4H235-bH] : what is it? -0.443

Query: interaction score; subject: DEIQELKKKIEELERENWELKKENQELKR [4H796-bH] -0.89

Source: paper PMC10397247
